Reported IC50 on UniProtKB P27338 for assorted molecules, compiled from publications.
- TESTED_TARGET: UniProtKB P27338
- Sequence (P27338 whole entry): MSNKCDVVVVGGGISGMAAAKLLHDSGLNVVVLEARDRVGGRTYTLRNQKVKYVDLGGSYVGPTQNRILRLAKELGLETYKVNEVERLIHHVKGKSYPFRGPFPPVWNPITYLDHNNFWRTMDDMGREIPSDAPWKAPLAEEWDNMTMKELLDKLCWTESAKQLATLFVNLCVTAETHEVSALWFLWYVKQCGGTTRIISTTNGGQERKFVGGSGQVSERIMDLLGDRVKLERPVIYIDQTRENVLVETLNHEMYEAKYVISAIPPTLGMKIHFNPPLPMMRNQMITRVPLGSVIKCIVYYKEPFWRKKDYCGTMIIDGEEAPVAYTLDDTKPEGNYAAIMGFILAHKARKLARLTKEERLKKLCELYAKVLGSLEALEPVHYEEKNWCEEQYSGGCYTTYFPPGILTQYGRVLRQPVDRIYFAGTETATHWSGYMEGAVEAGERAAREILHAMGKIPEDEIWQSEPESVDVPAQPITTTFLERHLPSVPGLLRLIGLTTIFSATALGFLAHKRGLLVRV
MEASUREMENT_LABEL: IC50 (nM)

> print(dat)
                                    molecule  measurement.label  units.label  lt.gt.eq    val
 1               O=c1oc2cc(OCc3ccccc3)ccc2s1               IC50           nM         =     51
 2  O=[N+]([O-])c1ccc(O)c(/C=N/c2ccc(OCc3ccccc3)cc2)c1               IC50           nM         =  60900
 3  CN1c2c(nn(-c3ccc(/C=N/NC(=S)Nc4ccc(F)cc4)cc3)c2-c2ccccc2)-c2ccccc2S1(=O)=O               IC50           nM         =   6990
 4  Cn1c(=O)c2c(cc(/C=C/c3cccc(N)n3)n2C)n(C)c1=O               IC50           nM         >  10000
 5  CCCOc1ccc(/C=C/c2cc3c(c(=O)n(C)c(=O)n3C)n2C)cc1               IC50           nM         =   1370
 6  Cn1c(=O)c2c(nc(SCCc3ccc(Br)cc3)n2C)n(C)c1=O               IC50           nM         =     19
 7                O=Cc1cccc(OCc2cccc(F)c2)c1               IC50           nM         =   1210
 8                   O=Cc1cccc(OCc2ccccc2)c1               IC50           nM         =   1960
 9           N[C@]1(c2ccccc2)C[C@H]1c1ccccc1               IC50           nM         =   5550
10    Cc1ccc(/C=N/Nc2nc(-c3ccc(F)cc3)cs2)cc1               IC50           nM         =  44700
11          COc1ccc(C(=O)/C=C/c2ccccc2OC)cc1               IC50           nM         =    419
12      CCC(C)(C)c1ccc(OCCCCCCCCN2CCCCC2)cc1               IC50           nM         >   1000
13  Cn1c(=O)c2c(cc(/C=C/c3ccc4c(c3)OCO4)n2C)n(C)c1=O               IC50           nM         >   1000
14    O=C(/C=C/c1cccc(C(F)(F)F)c1)c1ccc[nH]1               IC50           nM         =   1400
15  COc1ccc(C2=NN(C(=S)Nc3ccccc3)C(c3cccs3)C2)cc1 (stereo not drawn)               IC50           nM         =  92000
16    COc1ccc(C(=O)/C=C/c2ccccc2C(F)(F)F)cc1               IC50           nM         =     16
17  Oc1cc(OCc2cccc(C(F)(F)F)c2)ccc1CNc1ccccc1               IC50           nM         =    297
18  Cc1ccc(CCSc2nc3c(c(=O)n(C)c(=O)n3C)n2C)cc1               IC50           nM         =     72
19  O=C(/C=C/c1ccc(C(F)(F)F)cc1)Nc1ccc(F)cc1               IC50           nM         =    223
20  CC(=O)c1cccc(/C=C/c2cc3c(c(=O)n(C)c(=O)n3C)n2C)c1               IC50           nM         >  10000
21  NC(=O)c1cccc(CN[C@H]2C[C@@H]2c2ccccc2)c1 (relative stereo)               IC50           nM         =  95700
22  Cn1c(=O)c2c(cc(/C=C/c3ccc(C#N)cc3)n2C)n(C)c1=O               IC50           nM         =    543
23                 Cc1ccc(COc2cccc(Br)c2)cc1               IC50           nM         =   1530

---

- TESTED_TARGET: Amine oxidase [flavin-containing] B (Homo sapiens, UniProt P27338)
- Sequence (P27338 whole entry): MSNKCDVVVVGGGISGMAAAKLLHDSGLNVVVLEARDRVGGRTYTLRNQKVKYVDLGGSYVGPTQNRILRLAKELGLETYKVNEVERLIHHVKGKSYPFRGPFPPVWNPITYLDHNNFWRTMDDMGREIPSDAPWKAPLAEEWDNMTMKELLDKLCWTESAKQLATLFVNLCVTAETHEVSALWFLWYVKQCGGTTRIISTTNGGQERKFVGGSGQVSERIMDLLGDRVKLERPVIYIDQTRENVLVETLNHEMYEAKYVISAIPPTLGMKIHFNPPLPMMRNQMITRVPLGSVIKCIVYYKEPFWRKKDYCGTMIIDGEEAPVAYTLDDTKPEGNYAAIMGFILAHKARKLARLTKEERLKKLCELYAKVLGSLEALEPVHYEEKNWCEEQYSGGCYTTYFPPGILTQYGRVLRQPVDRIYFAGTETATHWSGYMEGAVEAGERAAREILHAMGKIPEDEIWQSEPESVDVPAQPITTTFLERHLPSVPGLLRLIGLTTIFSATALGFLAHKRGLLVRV
pIC50: −log10 of the molar value.
Reported pIC50 on Amine oxidase [flavin-containing] B (Homo sapiens, UniProt P27338) for assorted compounds, compiled from publications.
MEASUREMENT_LABEL: pIC50

> print(dat)
                              line.notation  measurement.label   val
1         O=C(/C=C/c1ccc2c(c1)OCO2)NC1CCCC1              pIC50  5.95
2    O=C(Nc1ccc(O)cc1)c1cc(=O)c2cc(O)ccc2o1              pIC50  5.99
3  CN1c2c(nn(-c3ccc(/C=N/NC(=S)Nc4ccccc4Cl)cc3)c2-c2ccccc2)-c2ccccc2S1(=O)=O              pIC50  6.17

---

Reported pIC50 on Amine oxidase [flavin-containing] B (Homo sapiens, UniProt P27338) for assorted molecules, compiled from publications.
- TESTED_TARGET: Amine oxidase [flavin-containing] B (Homo sapiens, UniProt P27338)
- Sequence (P27338 whole entry): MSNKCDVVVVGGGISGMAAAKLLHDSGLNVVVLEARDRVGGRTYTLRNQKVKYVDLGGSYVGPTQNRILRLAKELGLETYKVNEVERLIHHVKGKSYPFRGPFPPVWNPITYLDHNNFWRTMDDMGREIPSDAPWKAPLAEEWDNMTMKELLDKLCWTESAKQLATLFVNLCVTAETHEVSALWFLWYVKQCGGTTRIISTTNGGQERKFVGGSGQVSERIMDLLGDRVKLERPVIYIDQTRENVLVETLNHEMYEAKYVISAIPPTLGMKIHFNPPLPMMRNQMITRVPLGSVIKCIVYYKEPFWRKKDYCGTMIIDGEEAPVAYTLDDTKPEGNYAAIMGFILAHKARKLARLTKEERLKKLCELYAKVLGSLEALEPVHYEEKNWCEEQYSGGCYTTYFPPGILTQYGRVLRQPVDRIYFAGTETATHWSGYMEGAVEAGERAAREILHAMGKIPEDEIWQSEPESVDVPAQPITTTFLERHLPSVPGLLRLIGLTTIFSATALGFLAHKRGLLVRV
pIC50: −log10 of the molar value.
MEASUREMENT_LABEL: pIC50

> print(dat)
                              line.notation     val
1  C#CCn1c(=O)c2c(nc3n2CCCN3c2ccc(F)cc2)n(C)c1=O  < 5.00
2  CCn1c(=O)c2c(cc(C#Cc3ccc(Cl)cc3)n2C)n(CC)c1=O  < 6.00
3  C#CCn1c(=O)c2c(nc3n2CCCN3C2CCC2)n(C)c1=O  < 5.00
4                        C=C=CCNCCCCNCC=C=C  < 3.70
